- ASSAYED TARGET: GSK3β (Homo sapiens)
- Sequence (P49841 whole entry, species assumed): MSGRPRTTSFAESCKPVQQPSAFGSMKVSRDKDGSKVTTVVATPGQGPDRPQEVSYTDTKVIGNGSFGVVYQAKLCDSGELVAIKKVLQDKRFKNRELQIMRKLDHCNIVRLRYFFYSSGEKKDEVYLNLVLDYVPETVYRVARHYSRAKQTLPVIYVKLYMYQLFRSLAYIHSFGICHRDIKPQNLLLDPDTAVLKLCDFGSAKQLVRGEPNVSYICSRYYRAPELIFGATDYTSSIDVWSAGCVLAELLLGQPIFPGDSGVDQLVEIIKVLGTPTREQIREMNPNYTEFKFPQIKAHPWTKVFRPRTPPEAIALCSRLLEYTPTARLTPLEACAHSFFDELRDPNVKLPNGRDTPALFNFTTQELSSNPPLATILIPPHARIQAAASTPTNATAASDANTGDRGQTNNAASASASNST
- ASSAY REMARKS: GSK3β kinase assay (Caliper LabChip3000 mobility shift, fluoresceinated peptide substrate)
- Type: biochemical
- EXPERIMENTAL SETUP: 250 pM enzyme, 20 uM ATP, 1.5 uM peptide, 20 hours room temperature; first value of cell GSK3β/GSK3α; read-out: GSK3β (nM), IC50
ASSAY ENDPOINT: log10 IC50 (log10 of the value in nM)

# COMPOUND, REPORTED RESULT
data = [
    ("O=C(Nc1cncnc1)c1ccnc(NCC2CC2c2ccc(F)cc2)n1 (stereo not drawn)", 1.54),
    ("O=C(Nc1cnccc1OCC(F)(F)F)c1ccnc(NC2CCCC2)n1", -0.72),
    ("O=C(Nc1cnccc1OCC(F)(F)F)c1ccnc(NCc2cccc(F)c2)n1", 0.11),
    ("O=C(Nc1cnccc1-c1ccccc1)c1ccnc(Nc2cncc3c2CCCC3)n1", 0.54),
    ("O=C(Nc1cnccc1OCC(F)(F)F)c1ccnc(Nc2ccc(Cl)cc2F)n1", -0.14),
    ("O=C(Nc1cnccc1-c1ccccc1)c1ccnc(Nc2ccccc2)n1", -0.37),
    ("N#Cc1ccc(Nc2nccc(C(=O)Nc3cnc(F)cc3N3CCOCC3)n2)cc1", 0.04),
    ("O=C(Nc1cnccc1-c1ccccc1)c1ccnc(Nc2ccc(C(F)(F)F)cc2)n1", 0.30),
    ("COc1ccc(Nc2nccc(C(=O)Nc3cncnc3OCC(F)(F)F)n2)cc1", -0.10),
]

* * *

- ASSAYED TARGET: GSK3α (Homo sapiens)
- Sequence (P49840 whole entry, species assumed): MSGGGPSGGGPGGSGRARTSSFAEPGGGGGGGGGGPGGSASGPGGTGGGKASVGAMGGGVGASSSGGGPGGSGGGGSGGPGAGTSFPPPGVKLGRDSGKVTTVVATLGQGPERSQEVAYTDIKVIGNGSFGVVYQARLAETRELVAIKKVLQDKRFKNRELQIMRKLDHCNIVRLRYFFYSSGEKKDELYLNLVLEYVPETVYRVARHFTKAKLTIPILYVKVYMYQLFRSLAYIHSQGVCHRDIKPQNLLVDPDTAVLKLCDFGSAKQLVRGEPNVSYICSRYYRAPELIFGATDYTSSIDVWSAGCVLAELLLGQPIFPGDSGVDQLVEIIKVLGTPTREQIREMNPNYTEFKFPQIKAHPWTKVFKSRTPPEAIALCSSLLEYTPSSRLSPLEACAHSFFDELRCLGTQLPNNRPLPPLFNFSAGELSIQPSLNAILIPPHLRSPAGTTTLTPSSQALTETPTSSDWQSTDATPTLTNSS
Please use Met for IC50 under 0.9 nM and Not met for everything else, ties included.

# GIVEN SMILES, CLASSIFICATION
measured = [
    ("Cc1cc(Nc2nccc(C(=O)Nc3cnccc3-c3ccccc3)n2)ccc1F", "Met"),
    ("O=C(Nc1cncc(-c2ccccc2F)c1)c1ccnc(Nc2cccc(C(F)(F)F)c2)n1", "Not met"),
    ("CC(C)(C)CNc1nccc(C(=O)Nc2cncnc2OCC(F)(F)F)n1", "Met"),
    ("CN(C)c1ccc(Nc2nccc(C(=O)Nc3cnccc3-c3ccccc3)n2)cn1", "Not met"),
    ("N#Cc1ccc(Nc2nccc(C(=O)Nc3cnc(F)cc3N3CCOCC3)n2)cc1", "Not met"),
    ("O=C(Nc1cnccc1OCC(F)(F)F)c1ccnc(NC2CC2)n1", "Not met"),
    ("O=C(Nc1cnccc1OCC(F)(F)F)c1ccnc(Nc2ccc(C(F)(F)F)nc2)n1", "Met"),
    ("Cc1nc(OC(F)F)ccc1Nc1nccc(C(=O)Nc2cnccc2-c2ccccc2)n1", "Not met"),
    ("O=C(Nc1cnccc1OCC(F)(F)F)c1ccnc(NC2CCOCC2)n1", "Not met"),
]

* * *

Target or system GSK3α (Homo sapiens, UniProt P49840); recorded quantity log10 of IC50.
ASSAY ENDPOINT: log10 of IC50 (log10 of the value in nM)

# MOLECULE, ASSAYED TARGET, log10 of IC50
records = [
    ("O=C(Nc1cnccc1-c1ccc(F)cc1)c1ccnc(NC2CCCC2)n1", "GSK3α (Homo sapiens, UniProt P49840)", -0.52),
    ("CC(=O)Nc1ccc(Nc2nccc(C(=O)Nc3cnccc3-c3ccccc3)n2)cn1", "GSK3α (Homo sapiens, UniProt P49840)", -0.04),
    ("O=C(Nc1cnc(F)cc1N1CCOCC1)c1ccnc(Nc2cccc(OC(F)(F)F)c2)n1", "GSK3α (Homo sapiens, UniProt P49840)", -0.34),
    ("O=C(Nc1cnccc1CN1CCCC1)c1ccnc(Nc2ccc(OC(F)F)nc2)n1", "GSK3α (Homo sapiens, UniProt P49840)", 0.82),
    ("CC(Nc1nccc(C(=O)Nc2cnccc2OCC(F)(F)F)n1)c1ccccc1 (centres unmarked)", "GSK3α (Homo sapiens, UniProt P49840)", 0.51),
    ("O=C(Nc1cnccc1N1CCC(F)(F)CC1)c1ccnc(Nc2ccccc2)n1", "GSK3α (Homo sapiens, UniProt P49840)", -0.82),
    ("O=C(Nc1cnccc1-c1ccccc1)c1ccnc(Nc2ccc(C(F)(F)F)cc2Cl)n1", "GSK3α (Homo sapiens, UniProt P49840)", 1.20),
    ("O=C(Nc1cnccc1-c1ccccc1F)c1ccnc(Nc2ccc3ccccc3c2)n1", "GSK3α (Homo sapiens, UniProt P49840)", -0.15),
]
